assay: Cytotoxicity against human SGC7901 cells after 48 hrs by MTT assay; format: functional, cell-based; details: SGC-7901, 48 h
Mark yes (1) only for IC50 values smaller than 10 µM; exact matches and larger values are no (0).

>>> class_label("CC(C)=CCC/C(C)=C/CC/C(C)=C/CSc1ccccc1C(=O)NCCCCCN")
"yes (1)"

query: Given the entry `CC(C)=CCC/C(C)=C/CC/C(C)=C/CSc1ccccc1C(=O)NCCCCCNC(=O)c1ccccc1SC/C=C(\C)CC/C=C(\C)CCC=C(C)C` , would its reported IC50 be below 10 µM?
result: no (0)

query: Does this compound meet the criterion IC50 < 10 µM? `CC(C)=CCC/C(C)=C/CC/C(C)=C/CSc1ccccc1C(=O)NCCCNC(=O)c1ccccc1SC/C=C(\C)CC/C=C(\C)CCC=C(C)C`
result: no (0)

query: Decide: IC50 of CNC(=O)c1cc(Oc2ccc(NC(=O)Nc3ccc(Cl)c(C(F)(F)F)c3)cc2)ccn1 [SORAFENIB] strictly below 10 µM?
result: no (0)

query: Given the entry CC(C)=CCC/C(C)=C/CC/C(C)=C/CSc1ccccc1C(=O)O [SALIRASIB] , would its reported IC50 be below 10 µM?
result: no (0)

query: Determine whether this compound shows IC50 lower than 10 µM (ties excluded): `CC(C)=CCC/C(C)=C/CC/C(C)=C/CSc1ccccc1C(=O)NCCNC(=O)c1ccccc1SC/C=C(\C)CC/C=C(\C)CCC=C(C)C`
result: no (0)

query: Input `CC(C)=CCC/C(C)=C/CC/C(C)=C/CSc1ccccc1C(=O)NCCCCN` ; condition: IC50 strictly below 10 µM. Does it hold?
result: no (0)

query: API: query returns whether the compound falls strictly under 10 µM in IC50. Query: `CC(C)=CCC/C(C)=C/CC/C(C)=C/CSc1ccccc1C(=O)NCCCCCCN`
result: yes (1)
